Measured pKd values are reported for all entries that follow.
tested_target: T1, NOD mouse SIRP-α D1 domain (mouse (NOD strain))
T1 chain: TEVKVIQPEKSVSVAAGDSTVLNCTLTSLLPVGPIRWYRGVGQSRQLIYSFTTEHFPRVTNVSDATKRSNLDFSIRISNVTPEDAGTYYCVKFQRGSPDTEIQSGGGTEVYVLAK
test_method_notes: SPR, antibody immobilised on GLC chip
pKd: −log10 of the molar value.

>  <binder>
antibody 136 variant Mut/mut (antibody, human IgG1, V domains shown, Human IgG1 with L234A/L235A/G237A/N297A; Labels are light chain/heavy chain) VH: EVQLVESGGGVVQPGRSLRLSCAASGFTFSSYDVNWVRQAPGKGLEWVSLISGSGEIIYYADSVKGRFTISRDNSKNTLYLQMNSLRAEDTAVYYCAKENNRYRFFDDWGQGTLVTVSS VL: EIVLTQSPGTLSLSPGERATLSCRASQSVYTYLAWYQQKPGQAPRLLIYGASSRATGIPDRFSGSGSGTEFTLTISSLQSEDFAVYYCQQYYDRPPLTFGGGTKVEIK

>  <pKd>
8.27

$$$$
>  <binder>
antibody 136 variant MutRv_I2T/mut_V34M (antibody, human IgG1, V domains shown, Human IgG1 with L234A/L235A/G237A/N297A; Labels are light chain/heavy chain) VH: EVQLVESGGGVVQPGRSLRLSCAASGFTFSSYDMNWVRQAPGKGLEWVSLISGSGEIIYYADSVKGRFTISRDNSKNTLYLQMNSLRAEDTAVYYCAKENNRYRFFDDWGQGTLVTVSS VL: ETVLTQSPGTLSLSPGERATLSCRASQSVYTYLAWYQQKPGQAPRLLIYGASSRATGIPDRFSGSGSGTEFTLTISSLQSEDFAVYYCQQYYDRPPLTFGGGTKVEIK

>  <pKd>
9.22

$$$$
>  <binder>
antibody 136 variant MutRv_S22T/mut (antibody, human IgG1, V domains shown, Human IgG1 with L234A/L235A/G237A/N297A; Labels are light chain/heavy chain) VH: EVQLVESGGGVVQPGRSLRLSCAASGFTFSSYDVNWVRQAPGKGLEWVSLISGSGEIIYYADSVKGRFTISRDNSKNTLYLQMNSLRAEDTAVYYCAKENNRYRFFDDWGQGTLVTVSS VL: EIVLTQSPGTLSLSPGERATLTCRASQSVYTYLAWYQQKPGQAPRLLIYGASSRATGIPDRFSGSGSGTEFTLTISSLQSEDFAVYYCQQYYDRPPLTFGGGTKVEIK

>  <pKd>
8.61

$$$$
